Biological target: recombinant soluble homotrimeric HA of A/South Carolina/1/18 (H1N1) (Influenza A virus A/South Carolina/1/18 (H1N1))
Assay: trimeric HA microarray, transfection supernatant set 4
Settings: remark: other sources report otherwise
PROPERTY MEASURED: Trimeric HA Binding: RLU
Answer format: value, then unit.

# BINDER, OBSERVED
records = [
    ("TCN-536 (5095_N01) (antibody, V domains shown) VH: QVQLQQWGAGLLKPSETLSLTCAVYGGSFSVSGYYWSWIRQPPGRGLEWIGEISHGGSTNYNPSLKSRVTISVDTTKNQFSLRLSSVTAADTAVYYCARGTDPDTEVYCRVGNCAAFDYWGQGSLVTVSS VL: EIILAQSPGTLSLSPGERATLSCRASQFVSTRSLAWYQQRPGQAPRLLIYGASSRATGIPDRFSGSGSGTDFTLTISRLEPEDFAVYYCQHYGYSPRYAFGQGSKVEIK", "39 RLU"),
]

Next binder, please.
Return the recorded Trimeric HA Binding: RLU value; entry: TCN-535 (5246_P19) (antibody, V domains shown) VH: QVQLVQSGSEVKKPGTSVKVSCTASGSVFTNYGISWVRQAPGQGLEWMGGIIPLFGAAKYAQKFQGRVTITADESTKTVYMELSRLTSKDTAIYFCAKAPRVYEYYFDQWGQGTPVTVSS VL: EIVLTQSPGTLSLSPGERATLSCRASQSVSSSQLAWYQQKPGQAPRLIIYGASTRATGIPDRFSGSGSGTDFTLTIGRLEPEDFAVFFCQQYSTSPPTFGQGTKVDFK
22400 RLU
